- testName: qHTS for Inhibitors of the Functional Ribonucleoprotein Complex (vRNP) of Lassa (LASV) Arenavirus: Viability assay - alamar blue signal for LASV Primary Screen (AID 1347083); note: nearly all actives have a fitted effect of over 80% in size
- experimentalSetup: cell viability, alamar blue fluorescence (LASV minigenome counter-screen); series mostly up to 57.5 µM
Records with an inconclusive call do not appear. The source made the active and inactive calls. Calls come from the whole dose curve; tested in HEK293 reporter line.
Can you answer with just one of these options? active, inactive

// known answers, use as guide
[
  {
    "compound": "CN1N=C(N)c2cn([C@@H]3O[C@H](COP(=O)(O)O)[C@@H](O)[C@@H]3O)c3ncnc1c23",
    "assignedClass": "active"
  },
  {
    "compound": "CCCCCCCCCCCCCCCC(=O)O[C@@H]1CC(C)=C(/C=C/C(C)=C/C=C/C(C)=C/C=C/C=C(C)/C=C/C=C(C)/C=C/C2=C(C)C[C@@H](OC(=O)CCCCCCCCCCCCCCC)CC2(C)C)C(C)(C)C1",
    "assignedClass": "inactive"
  },
  {
    "compound": "Cc1cnc(CNC(=O)c2c(=O)c3ccc(N4CCCN(C)CC4)nc3n3c2sc2ccccc23)cn1",
    "assignedClass": "active"
  },
  {
    "compound": "O=C(O)CCNc1cc(N2CCc3ccccc3CC2)nc(-c2ccccn2)n1",
    "assignedClass": "inactive"
  }
]

Data request: Please share the test call associated with `COc1c(OCCCN2CCOCC2)ccc2c3n(c(=NC(=O)c4cnc(N)nc4)nc12)CCN3` .
Data returned: active

Data request: Would you mind telling me which call this test gave `c1ccc2c(c1)CC(N1CCN(c3cccc4c3OCCO4)CC1)C2` ?
Data returned: inactive

Data request: Tell me the assay call for `CC(=O)c1c(O)cccc1O` please.
Data returned: inactive

Data request: Which result was noted for this compound in the test: CC1=CC2OC3CC4OC(=O)C=CC=CC(=O)OCCC(C)C(O)C(=O)OCC2(CC1)C4(C)C31CO1 (centres undefined)
Data returned: inactive

Data request: Could you please tell me the result logged for `O=C/C=C/c1ccc(O)cc1` in this assay?
Data returned: inactive

###

- experimentalTarget: Nucleoprotein (Lymphocytic choriomeningitis virus (strain Armstrong))
- testName: qHTS for Inhibitors of the Functional Ribonucleoprotein Complex (vRNP) of Lymphocytic Choriomeningitis Arenaviruses (LCMV): LCMV Primary Screen - GLuc reporter signal (AID 1347086); note: nearly all actives have a fitted effect of over 70% in size
- experimentalSetup: LCMV minigenome vRNP cell assay, Gaussia luciferase reporter; series mostly up to 57.5 µM
Records with an inconclusive call do not appear. Activity calls are given as the source filed them. Calls come from the whole dose curve.
Form entry, call: pick from true = active, false = inactive

These recorded examples may help you get a feel for the data.
[
  {
    "compound": "CC1OC(OC2C(CO)OC(OCC3OC(OC(=O)[C@@]45CCC(C)(C)C[C@@H]4C4=CC[C@@H]6[C@@]7(C)CCC(OC8OCC(O)C(O)C8OC8OC(C)C(O)C(O)C8O)[C@@](C)(CO)C7CC[C@@]6(C)[C@]4(C)CC5)C(O)C(O)C3O)C(O)C2O)C(O)C(O)C1O (stereo partly drawn)",
    "assignedClass": "false"
  },
  {
    "compound": "CC(C)=CCC/C(C)=C/CC/C(C)=C/CO",
    "assignedClass": "false"
  },
  {
    "compound": "CN1c2cc(O)c(N=NC(N)=O)cc2CC1S(=O)(=O)O (stereo not drawn)",
    "assignedClass": "false"
  },
  {
    "compound": "Cc1c(O)c(C)c2c(c1O)C(=O)C[C@@H](c1ccccc1)O2",
    "assignedClass": "false"
  }
]

Data request: So what was the verdict on `O=c1cc(-c2ccccc2F)[nH]c2cc3c(cc12)OCO3` in this test?
Data returned: false

Data request: Lab log entry: `COC(=O)C[C@](O)(CCCC(C)(C)O)C(=O)O[C@@H]1C(OC)=C[C@]23CCCN2CCc2cc4c(cc2[C@H]13)OCO4` — outcome as called in the assay?
Data returned: false

Data request: For this compound, state the assay outcome: `O=c1[nH]c(O)c(/C=C2\C=Nc3ccccc32)[nH]1`
Data returned: false

Data request: Which result was noted for this compound in the test: `O=c1[nH]c2cc(Cl)c(Cl)cc2[nH]c1=O`
Data returned: false

Data request: Lab log entry: C=CC(C)(CCC=C(C)C)OC(=O)C(C)C (stereo not drawn) — outcome as called in the assay?
Data returned: false

Data request: How did this test come out for `C=C1C[C@H](O[C@@H]2O[C@H](CO)[C@@H](O)[C@H](O)[C@H]2O)[C@@H]2[C@H](OC(=O)[C@H]2C)[C@H]2[C@H](C)[C@@H](O)C[C@@H]12` ?
Data returned: false

Data request: Hello, I am checking results. What call was entered for `COc1ccc(-c2coc3cc(OC)ccc3c2=O)cc1` ?
Data returned: false

Data request: Dear colleague, could you share the recorded outcome for `N#C/C(=C\c1ccc(O)c(O)c1)C(=O)Nc1ccccc1` when you have a moment?
Data returned: false

Data request: What call does the record list for C=C(CC[C@@H](O)C(C)(C)O)[C@H]1CC[C@]2(C)[C@@H]1CCC1[C@@]3(C)CC[C@H](O)C(C)(C)C3CC[C@]12C (stereo partly drawn) ?
Data returned: false

Data request: // outcome(item) with item = `NCC(=O)Nc1ccc(-n2nc(C(F)(F)F)cc2-c2ccc3c(ccc4ccccc43)c2)cc1`
Data returned: true

Data request: Call for entry CC1(C)Oc2cc3oc(-c4cc(O)cc(O)c4)cc3cc2CC1O (stereo not drawn) :
Data returned: false

Data request: // param item: `CC1=C[C@H]2OC(=O)[C@@H](C)[C@H]2C[C@@H]2[C@H]1C[C@@H](O)[C@@]2(C)O` ; yields the recorded call
Data returned: false

Data request: Look up the recorded call for C=CC1(C)CC(=O)C2(O)C(C)(O1)C(OC(C)=O)C(O)C1C(C)(C)CCC(O)C12C (stereo not drawn) in this test.
Data returned: false

Data request: Fill in: this test's call for Cc1cc(O)c2c(c1)C(O)(C1OC(CO)C(O)C(O)C1O)c1cccc(O)c1C2=O (stereo not drawn) is ___
Data returned: false

###

- testName: Primary qHTS to identify inhibitors of SARS-CoV-2 cell entry (AID 1645846); note: nearly all actives have a fitted effect of over 45% in size
- experimentalSetup: SARS-CoV-2 pseudovirus cell entry assay, luminescence; at 57.1 µM (top of the series) unless noted
Inconclusive results are not listed.
The label depends only on activity change, negative = inhibition: class 1 if it is at least -20%, class 0 if it is smaller.

[
  {
    "molecule": "CN(C)CC(C)(C)CNc1nn2c(-c3ccccc3)nnc2cc1C1CCC1",
    "assignedClass": "class 1"
  }
]

Data request: Confirm if activity change, negative = inhibition reported for the molecule `C[C@H](Cc1ccc(O)c(O)c1)[C@@H](C)Cc1ccc(O)c(O)c1` is -20% or above.
Data returned: class 1

Data request: Reported activity change, negative = inhibition at or above -20%? `Cc1ccccc1-n1c(Cn2nc(-c3cccc(O)c3)c3c(N)ncnc32)nc2cccc(C)c2c1=O`
Data returned: class 1

Data request: Hi team, for `CCc1c(O)cc(O)c(C(=O)c2ccc(OCCN3CCOCC3)c(OC)c2)c1CC(=O)N(CCOC)CCOC` , is the recorded activity change, negative = inhibition at or above -20%?
Data returned: class 0

Data request: Could you tell me if the measured activity change, negative = inhibition of `CC(C)n1cnc2c(NCCc3ccc(O)cc3)nc(-c3csc4ccccc34)nc21` reaches -20% or more?
Data returned: class 0

Data request: Reported activity change, negative = inhibition reaches at least -20% for `N#Cc1c(NC(=O)c2cccc3ccccc23)sc2c1CCCC2` ?
Data returned: class 0

Data request: Textbook exercise: given the entry O=C1NC(O)CCN1[C@@H]1O[C@H](CO)[C@H](O)[C@H]1O (stereo partly drawn) , state whether its activity change, negative = inhibition is greater than or equal to -20%.
Data returned: class 0

###

- testName: Cytotoxicity counterscreen for inhibitors of SARS-CoV-2 cell entry (AID 1645845); note: nearly all actives have a fitted effect of over 50% in size
- experimentalSetup: cell viability (SARS-CoV-2 entry assay cells); series mostly up to 57.1 µM
Results filed as inconclusive are left out. The source made the active and inactive calls. The call rests on the fitted dose curve.
Answer with one of the outcomes active, inactive

Reference set, count: 4
[
  {
    "compound": "Oc1ccc(-c2nc(-c3ccc(F)cc3)c(-c3ccncc3)[nH]2)cc1",
    "assignedClass": "inactive"
  },
  {
    "compound": "Cc1ccc(Nc2cc(-c3cccc(N4C(=O)c5ccccc5C4=O)c3)ncn2)cc1NS(C)(=O)=O",
    "assignedClass": "active"
  },
  {
    "compound": "C[C@@]1(C(=O)Nc2ccc(F)nc2)CCCN1c1nc(Nc2cc(C3CC3)[nH]n2)c2cccn2n1",
    "assignedClass": "inactive"
  },
  {
    "compound": "N#CC(c1ccnc(NCCc2cccnc2)n1)c1nc2ccccc2s1 (stereo not given)",
    "assignedClass": "inactive"
  }
]

// switching to the query compound
Data request: So what was the verdict on `c1ccc(CNc2nc(N3CCOc4ccccc43)nc3c2CCCC3)cc1` in this test?
Data returned: inactive
